tested on: HCT-116 colon; assay: NCI tumour cell line growth inhibition, 48 h
measured.parameter: TGI

> print(dat)
                                   compound  measured.parameter  measured.result
1  COP(=O)(OC)C(=O)N1N(c2ccc([N+](=O)[O-])cc2)C(=O)C(C)NC1(NNc1ccc([N+](=O)[O-])cc1)P(=O)(OC)OC (stereo not drawn)                 TGI         > 100 µM
2  O=C1NC(=O)C(F)(n2cc(F)c(=O)[nH]c2=O)C(O)N1 (stereo not drawn)                 TGI          > 10 µM
3  Cc1cc(C)n(CC(Cn2nc(C)cc2C)=C(/C(Cl)=C(/Cl)Nc2ccc([N+](=O)[O-])cc2)[N+](=O)[O-])n1                 TGI          14.3 µM
4  CC(NC(=O)/C(=C/c1ccccc1)NC(=O)c1ccccc1)C(=O)O (stereo not drawn)                 TGI         > 100 µM
5  CC1=CC(=O)CC(C)(C)C1/C=C/C(C)=C/C=C/C(C)=C/C=C/C=C(C)/C=C/C=C(C)/C=C/C1C(C)=CC(=O)CC1(C)C (stereo not drawn)                 TGI          55.1 µM
6  CC(C)C1C(=O)N(c2c(F)c(F)c(F)c(F)c2F)C(=S)N1CCS(=O)c1ccccc1 (stereo not drawn)                 TGI          34.7 µM
7  CN(C)c1ccc(C=Nc2ccc(-c3nc4ccccc4[nH]3)cc2)cc1                 TGI         > 100 µM

Attention now shifts to the item below.
Please look up its TGI: CC(C)OP(=O)(OC(C)C)/C(Cl)=N/Nc1ccc([N+](=O)[O-])cc1
> 100 µM

----------
Measured log10 of TGI by item
test system: SF-539 CNS; test: NCI tumour cell line growth inhibition, 48 h
Remember, log10 of TGI, in µM.

> print(dat)
                                    compound  measured.parameter  measured.result
 1  Cc1cc(S(=O)(=O)Nc2nc3ccccc3o2)c(SCc2ccccc2)cc1Cl        log10 of TGI             1.61
 2  CC(=O)c1ccc2c(c1)c1cc(C(C)=O)ccc1n2CCNC(C)C        log10 of TGI             0.31
 3    O=C(/C=C/c1cc(Cl)cc(Cl)c1O)c1cccc(O)c1        log10 of TGI             1.87
 4  COc1ccc(/C=C/C(=O)c2cc(OC)c(OC)c(OC)c2)cc1OCC(=O)Nc1nc2ccc(OC(F)(F)F)cc2s1        log10 of TGI             0.07
 5  CCCCCCCCCCCCCCCCCc1cccc(OCOCCOC)c1C(=O)O        log10 of TGI             1.48
 6  Cc1c(Cl)cccc1NC(=O)C(=O)C(C(=O)c1ccccc1-c1ccccc1)C1OC(=O)c2ccccc21 (configuration not stated)        log10 of TGI             1.45
 7  O=C(c1ccccc1)c1c(CC(O)c2ccccn2)n(C(=O)c2ccccc2)c2ccccc12 (configuration not stated)        log10 of TGI             1.50
 8  CC(C)C1C(=O)N(c2c(F)c(F)c(F)c(F)c2F)C(=S)N1CCS(=O)c1ccccc1 (configuration not stated)        log10 of TGI             1.56
 9                       O=Nc1ccc(O)c(=O)cc1        log10 of TGI             0.87
10  CCSCC1CC(O)(c2ccccc2)CC(c2ccc(F)cc2)O1 (configuration not stated)        log10 of TGI             0.58

I would be grateful if you could share the reported log10 of TGI for O=C(O[C@@H](/C=C/c1ccccc1)P1(=O)N(Cc2ccccc2)[C@H]2CCCC[C@@H]2N1Cc1ccccc1)c1ccccc1 .
1.33

Quick one: log10 of TGI of COc1ccc(C2CC(c3cccc(Nc4ccnc5cc(Cl)ccc45)c3)=NN2C=O)cc1 (configuration not stated) ?
0.93

Entry COc1cc(Nc2nc3cc(N)cc(N)c3nc2-c2ccccc2)cc(OC)c1OC has what log10 of TGI?
1.46

Please report the recorded log10 of TGI for COc1cc(C2Cc3ncccc3-c3[nH]c(=O)c4cccnc4c32)cc(OC)c1OC (configuration not stated) .
0.19

Look at this compound and give its reported log10 of TGI. CCN(CC)c1ccc(/C=N/NC(=O)CSc2nc3ccccc3c(=O)n2CCc2ccc(S(N)(=O)=O)cc2)c(O)c1
1.82

For CC(=O)Nc1ccc2c(c1)C(c1ccccc1Cl)=Nc1c(n[nH]c1C)N2 , what is its reported log10 of TGI?
1.10

Can you share its log10 of TGI? I mean this compound: O=C1CSC(/C=C/c2ccccc2)N1c1nc2cc3sc(N4C(=O)CSC4/C=C/c4ccccc4)nc3cc2s1 (configuration not stated)
0.98

State the recorded log10 of TGI for this entry: c1ccc(-c2nnn3c2NC2=C(CCCC2)C3c2ccccc2)cc1 (configuration not stated)
1.55

----------
Each entry below lists one item and its recorded TGI value.
tested on: OVCAR-5 ovarian; assay: NCI tumour cell line growth inhibition, 48 h

Below: 2 molecules and their reported TGI.
molecule	tested.on	TGI
c1cc(NNc2cccc(-c3nn[nH]n3)c2)cc(-c2nn[nH]n2)c1	OVCAR-5 ovarian	> 100 µM
COCC1CCCN1c1ccc(C=N/C(C#N)=C(\N)C#N)cc1 (stereo not drawn)	OVCAR-5 ovarian	> 100 µM

Now take the following molecule into account.
Returns the measured TGI for the input molecule. Input: CCC(C)[C@H]1O[C@]2(CC[C@@H]1C)C[C@@H]1C[C@@H](C/C=C(\C)[C@@H](OC3C[C@H](OC)C(O[C@H]4C[C@H](OC)[C@@H](O)[C@H](C)O4)[C@H](C)O3)[C@@H](C)/C=C/C=C3\CO[C@@H]4[C@H](O)C(C)=C[C@@H](C(=O)O1)[C@]34O)O2 (stereo partly drawn)
5.67 µM

----------
# GI50 annotations
tested on: CAKI-1 renal; experiment: NCI tumour cell line growth inhibition, 48 h

Here are 4 compounds together with their reported answers.
compound	GI50
CCN1C/C(=C\c2cc(OC)c(OC)cc2OC)C(=O)/C(=C/c2cc(OC)c(OC)cc2OC)C1	2980 nM
Fc1cccc(COc2ccc(Nc3ncnc4sc(-c5cccs5)cc34)cc2Cl)c1	> 9710 nM
CCC(C)[C@H]1O[C@]2(CC[C@@H]1C)C[C@@H]1C[C@@H](C/C=C(\C)[C@@H](OC3C[C@H](OC)C(O[C@H]4C[C@H](OC)[C@@H](O)[C@H](C)O4)[C@H](C)O3)[C@@H](C)/C=C/C=C3\CO[C@@H]4[C@H](O)C(C)=C[C@@H](C(=O)O1)[C@]34O)O2 (stereo not given in full)	2600 nM
COc1cc(Nc2nc3cc(N)cc(N)c3nc2-c2ccccc2)cc(OC)c1OC	15500 nM

Consider the record given below.
Quick check: GI50 of CCN1C(=S)N(c2ccccc2)C2NC(=S)N(/N=C/C=C/c3ccccc3OC)C21 (stereo not given) ?
298 nM

----------
test system: UACC-257 melanoma; experiment: NCI tumour cell line growth inhibition, 48 h
measured.parameter: TGI

> print(dat)
                                   compound  measured.result
1  CCN1C/C(=C\c2cc(OC)c(OC)cc2OC)C(=O)/C(=C/c2cc(OC)c(OC)cc2OC)C1            28 µM

Which TGI value is on record for N#Cc1cc(C#N)c(N)nc1N ?
> 100 µM

Suppose we examine the compound COc1ccc(C2=C(Cl)c3cc(OC)c(OC)cc3C2OC)cc1OC (stereo unspecified) ; what TGI value has been reported?
> 100 µM

Bench note: what TGI did Cc1nc(N)c(N2CCN(C(=O)O)CC2)c(=O)[nH]1 show?
> 100 µM

So what's the measured TGI for this one? O=C(CC(=O)N1N=C(N2CCCCC2)CC1c1ccccc1)Nc1ccccc1 (stereo unspecified)
> 100 µM

Which TGI is listed for CCN1C(=S)N(c2ccccc2)C2NC(=S)N(/N=C/C=C/c3ccccc3OC)C21 (stereo unspecified) ?
> 100 µM

// lookup TGI for COC(=O)c1n[nH]c(C)c1N=NN(C)CCC#N
> 100 µM

What value of TGI has been reported for the following compound? CN1c2ccccc2N(C(=O)c2ccc([N+](=O)[O-])cc2)C(CC(=O)O)c2cccn21 (stereo unspecified)
> 100 µM

Request the reported TGI associated with O=c1ccc2nc3cc(Br)ccc3sc-2c1
> 100 µM

Which TGI value belongs to COC(=O)C1CCC(=O)N1CN(C(C)=O)c1ccccc1Cl (stereo unspecified) ?
> 100 µM

Give the measured TGI of Cc1ccc(NC(Nc2ccc(C)cc2C)=C(C(Cl)=C(Cl)Cl)[N+](=O)[O-])c(C)c1 .
35.7 µM

This collection of values is drawn from PubChem BioAssay (NCI).
